test system: M14 melanoma; assay: NCI-60 one-dose screen, 48 h (100 = growth as untreated, 0 = no growth, -100 = all killed); conditions: 10 µM unless noted
This is part of a sample that, as a whole, favours compounds with a hit. Of some 83,000 tested, about 20% had one in any assay. Active and inactive are the calls of the source. The calls were made as follows: active = growth percent below 10; inactive = the rest.
measureName: growth

Guide cases for growth, answers given:
N#Cc1c(O)c2c(c(O)c1C#N)C(=O)c1ccccc1C2=O: 2.51% (active)
COc1cc2oc(-c3ccc(O)cc3)cc(=O)c2c(O)c1I: 110% (inactive)
CC[Si](CC)(CC)OC1[C@@H](O[Si](CC)(CC)CC)[C@@H](CNC(=O)NC)O[C@H]1n1cnc2c(NC(=O)Nc3ccccc3)ncnc21 (stereo not given in full): 99.9% (inactive)
Cn1c(=O)c2c(-c3ccccc3F)n(-c3ccc4c(c3)OCO4)cc2n(C)c1=O: 117% (inactive)

Consider the additional compound presented here.
Query: Fill in reported growth for this entry: "C[C@@H](Oc1cc(-c2cnn(C3CC4(CCNCC4)C3)c2)cnc1N)c1c(F)ccc(Cl)c1Cl"
Reply: -75.5% (active)

Every entry's value here was drawn from PubChem BioAssay (NCI).
